The reported measurements were obtained from PubChem BioAssay.

Molecular target: Alpha-2C adrenergic receptor (Homo sapiens) (UniProt P18825)
Sequence (P18825 whole entry, looked up): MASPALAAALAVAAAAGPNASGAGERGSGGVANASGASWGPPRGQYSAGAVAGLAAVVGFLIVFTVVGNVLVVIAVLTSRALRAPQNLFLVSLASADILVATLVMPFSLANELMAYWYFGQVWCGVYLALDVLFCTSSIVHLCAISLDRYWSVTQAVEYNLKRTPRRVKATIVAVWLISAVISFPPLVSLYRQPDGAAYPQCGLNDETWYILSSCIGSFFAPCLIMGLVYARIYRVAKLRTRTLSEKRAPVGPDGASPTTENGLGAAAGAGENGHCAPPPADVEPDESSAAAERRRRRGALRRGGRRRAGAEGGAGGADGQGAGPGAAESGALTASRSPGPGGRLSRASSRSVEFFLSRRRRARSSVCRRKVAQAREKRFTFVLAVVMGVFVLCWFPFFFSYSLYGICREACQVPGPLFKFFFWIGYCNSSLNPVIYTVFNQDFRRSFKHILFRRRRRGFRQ
Assay: modulators of alpha2C/GIRK thallium flux, primary screen, cell-based, HEK293 alpha2C/GIRK1/2 (AID 624);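 further: slope of fluorescence ratio to pre-addition baseline per second over 15 to 24 s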
Details: thallium flux BTC fluorescence, at 10 µM, actives lie on both sides
Tag: Fulfilled if measured slope is not below 0.005, Not fulfilled if it is.

Observe how each entry below is paired with its result.
compound | label-value
Cc1cccc(CCNC(=O)CCc2nc(-c3ccccc3F)no2)c1 | Not fulfilled
c1ccc(CSc2nnc(-c3cccs3)n2Cc2ccco2)cc1 | Fulfilled

Pending compound:
Decide: slope of c1ccc(C2(Cn3ccc4ccccc43)OCCO2)cc1 >= 0.005?
Fulfilled
